B1: NET1 (parent)
chain: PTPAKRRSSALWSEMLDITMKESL

variants of: B1; experiment: protein stability index of a GFP-peptide fusion (GPS, HEK-293T) (PSI 1-6); higher = more stable; details: c terminus: a fixed tail appended;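 note: lentivirally expressed fusions sorted by FACS into six bins by GFP to DsRed ratio, PSI derived from sequencing read proportions per bin multiplied by bin number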
The entries below come with measured protein stability index values attached.
# answer = number (no unit)

PTPAKRRSSALSSEMLDITMKESL [W12S]    4.09

variant PTPYKRRSSALWSEMLDITMKESL [A4Y] , protein stability index observed: 1.82

variant PTPAKRRSSALWMEMLDITMKESL [S13M] , protein stability index observed: 2.64

variant PTPAKRRSSALWSEMLDITMKWSL [E22W] , protein stability index observed: 3.09
